Tgt: T1, 4H3277-bH
T1 chain: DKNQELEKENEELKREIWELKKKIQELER
Assay overview: two-hybrid library CCNG1;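 note: natural log of median RNA to DNA barcode read ratio; higher means stronger binding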
Recorded interaction score values for a group of binders are listed next.
Enter a number only.

# count of solved cases: 8
Binder	interaction score
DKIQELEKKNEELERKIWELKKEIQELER [4H2473-bH]	-0.651
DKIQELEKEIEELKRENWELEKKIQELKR [4H2134-bH]	-0.74
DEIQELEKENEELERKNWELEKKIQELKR [4H182-bH]	-0.523
DKNQELEKEIEELKRENWELKKEIQELKR [4H3162-bH]	-0.247
DKIQELKKENEELEREIWELEKENQELKR [4H2692-bH]	-0.368
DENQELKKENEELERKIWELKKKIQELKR [4H1710-bH]	0.846
DKIQELKKKIEELERENWELEKKNQELER [4H2839-bH]	-1.06
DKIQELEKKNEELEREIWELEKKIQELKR [4H2438-bH]	-0.355

Inquiry: # interaction score lookup, item DKNQELEKENEELKREIWELKKKIQELER [4H3277-bH]
Reply text: 1.3
